# Test system: SN12C
# assay.notes: GI50, drug alone; higher = less potent
# protocol.conditions: treatment: drug alone; 5 days

test.smiles	GI50, drug alone [µM]
Nc1nc(N)c2nc(-c3cccc(O)c3)cnc2n1	3.88
NC(=O)Nc1cc(-c2cccc(F)c2)sc1C(=O)N[C@H]1CCCNC1	0.408
CNC(=O)c1cccc(-c2ccc3c(N4CCOC[C@@H]4C)nc(N4CCOC[C@@H]4C)nc3n2)c1	0.364

----------
# System: 786-O
# assay.notes: minimum viability across doses, drug alone, relative to DMSO (fraction); higher = less growth inhibition
# protocol.conditions: treatment: drug alone; 5 days
Please note: minimum viability across doses exactly at 0.05 is 0 (no). Only values below 0.05 get 1 (yes).

compound	group.label
Cc1cccc(-c2nc(C(C)(C)C)[nH]c2-c2ccc3nccnc3c2)n1	0 (no)
COc1cc2c(Nc3ccc(NC(=O)c4ccccc4)cc3)ncnc2cc1OCCCN1CCOCC1	1 (yes)
CCn1c(N)c(C(=O)NC)c(=O)c2ccc(C#C[C@@](C)(O)COC)nc21	0 (no)
O=C1Nc2ccccc2/C1=C1/Nc2ccccc2C1=O [Indirubin]	0 (no)
CNC(=O)c1cc(Oc2ccc(NC(=O)Nc3cc(C(C)(C)C)nn3-c3ccc4ncccc4c3)c(F)c2)ccn1 [DCC-2036 (Rebastinib)]	0 (no)
CC[C@H](Nc1ncnc2[nH]cnc12)c1nc2cccc(F)c2c(=O)n1-c1ccccc1 [CAL-101 (GS-1101)]	0 (no)
CN(C)c1ccc(-c2nc3c(N4CCN(CC(=O)Nc5nccs5)CC4)c(Cl)cnc3[nH]2)cc1	0 (no)
Cc1cc(Nc2cc(N3CCN(C)CC3)nc(Sc3ccc(NC(=O)C4CC4)cc3)n2)n[nH]1 [VX-680 (MK-0457, Tozasertib)]	0 (no)
O=c1cc(-c2cccc3c2Sc2ccccc2S3)oc(N2CCOCC2)c1	0 (no)
CC(C)n1nc(-c2cc3cc(O)ccc3[nH]2)c2c(N)ncnc21 [PP242]	1 (yes)
C#Cc1cccc(Nc2ncnc3cc(OCCOC)c(OCCO)cc23)c1.Cl [OSI-420 (Desmethyl Erlotinib)]	0 (no)
COc1cc(OC)c(/C=C/S(=O)(=O)Cc2ccc(OC)c(NCC(=O)[O][Na])c2)c(OC)c1	1 (yes)
NC(=O)Nc1cc(-c2cccc(F)c2)sc1C(=O)N[C@H]1CCCNC1 [AZD7762]	1 (yes)

----------
# Test system: ACHN
# assay.notes: minimum viability across doses, drug + dasatinib, relative to DMSO (fraction); higher = less growth inhibition
# protocol.conditions: treatment: drug + dasatinib (fixed dose, not stated); 5 days
Please note: minimum viability across doses exactly at 0.2 is rule not met. Only values below 0.2 get rule met.

molecule	group.label
Cc1cnc(Nc2ccc(OCCN3CCCC3)cc2)nc1Nc1cccc(S(=O)(=O)NC(C)(C)C)c1 + Cc1nc(Nc2ncc(C(=O)Nc3c(C)cccc3Cl)s2)cc(N2CCN(CCO)CC2)n1	rule met
Cn1cnc2c(F)c(Nc3ccc(Br)cc3Cl)c(C(=O)NOCCO)cc21 [AZD6244 (Selumetinib)] + Cc1nc(Nc2ncc(C(=O)Nc3c(C)cccc3Cl)s2)cc(N2CCN(CCO)CC2)n1	rule not met
FC(F)(F)c1ccc(/C=C/c2nc(COc3ccc(CCCCn4ccnn4)cc3)co2)cc1 [Mubritinib (TAK 165)] + Cc1nc(Nc2ncc(C(=O)Nc3c(C)cccc3Cl)s2)cc(N2CCN(CCO)CC2)n1	rule met
CN(C[C@@H]1COCCO1)S(=O)(=O)Nc1ccc2ccc3ncc(-c4cnn(C)c4)cc3c(=O)c2c1 [MK-2461] + Cc1nc(Nc2ncc(C(=O)Nc3c(C)cccc3Cl)s2)cc(N2CCN(CCO)CC2)n1	rule met
CC(C)(C)c1cc(C=C(C#N)C#N)cc(Br)c1O [AG-1024] + Cc1nc(Nc2ncc(C(=O)Nc3c(C)cccc3Cl)s2)cc(N2CCN(CCO)CC2)n1	rule not met
O=C(NCc1ccccc1)c1csc(Nc2ccncn2)n1 [Thiazovivin] + Cc1nc(Nc2ncc(C(=O)Nc3c(C)cccc3Cl)s2)cc(N2CCN(CCO)CC2)n1	rule not met
Nc1nccc(Oc2ccc(NC(=O)c3c[nH]cc(-c4ccc(F)cc4)c3=O)cc2F)c1Cl + Cc1nc(Nc2ncc(C(=O)Nc3c(C)cccc3Cl)s2)cc(N2CCN(CCO)CC2)n1	rule not met
C[C@@H]1CN(CC(=O)Nc2ccc3c(c2)Cc2cccc(-c4cc(=O)cc(N5CCOCC5)o4)c2S3)C[C@H](C)O1 + Cc1nc(Nc2ncc(C(=O)Nc3c(C)cccc3Cl)s2)cc(N2CCN(CCO)CC2)n1	rule not met
CCS(=O)(=O)Nc1ccc2c(c1)/C(=C(/Nc1ccc(CN3CCCCC3)cc1)c1ccccc1)C(=O)N2 [Hesperadin] + Cc1nc(Nc2ncc(C(=O)Nc3c(C)cccc3Cl)s2)cc(N2CCN(CCO)CC2)n1	rule met
